Provide the recorded furin cleavage Z-score for the entries that follow.
target_under_test: furin, P09958;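 note: purified furin at 1:10 enzyme:substrate in 50 mM HEPES pH 7.5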
Sequence (P09958 whole entry): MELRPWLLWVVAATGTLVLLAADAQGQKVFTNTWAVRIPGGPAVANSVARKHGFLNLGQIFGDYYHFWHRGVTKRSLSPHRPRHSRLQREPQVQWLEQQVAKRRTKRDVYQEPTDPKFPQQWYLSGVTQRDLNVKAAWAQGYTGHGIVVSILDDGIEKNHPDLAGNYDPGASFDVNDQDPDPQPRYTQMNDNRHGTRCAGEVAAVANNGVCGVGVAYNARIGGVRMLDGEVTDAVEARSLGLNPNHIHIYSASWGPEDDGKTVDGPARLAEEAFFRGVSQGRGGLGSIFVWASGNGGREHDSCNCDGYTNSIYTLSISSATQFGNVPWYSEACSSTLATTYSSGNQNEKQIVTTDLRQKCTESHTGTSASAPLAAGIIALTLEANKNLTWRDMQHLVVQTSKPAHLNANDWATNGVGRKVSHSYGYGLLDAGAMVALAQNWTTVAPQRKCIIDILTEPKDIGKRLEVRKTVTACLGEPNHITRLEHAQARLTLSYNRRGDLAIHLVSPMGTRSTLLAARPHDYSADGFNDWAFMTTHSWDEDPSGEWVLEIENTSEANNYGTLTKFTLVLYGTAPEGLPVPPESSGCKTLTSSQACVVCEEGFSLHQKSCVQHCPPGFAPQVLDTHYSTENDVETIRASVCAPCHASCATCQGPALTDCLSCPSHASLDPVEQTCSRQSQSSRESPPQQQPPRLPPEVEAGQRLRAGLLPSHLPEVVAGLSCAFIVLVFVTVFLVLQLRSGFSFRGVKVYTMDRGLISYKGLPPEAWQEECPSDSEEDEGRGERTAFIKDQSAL
assay_info: furin cleavage Z-score vs untreated control; higher = more cleavage, active = 3.5 or more, inactive = 1 or less, 8 variable residues between constant flanks
experimental_conditions: 30 min
The other results are listed elsewhere or left out. The true hit rate is not given.
When you answer, write just the number.

query: Fill in the blank: the reported furin cleavage Z-score of CAHSKRKISWAGNASASA [FS-2865] is ____.
result: 1.88

query: Can you handle CAAASCGGVVAGNASASA [HC568] next?
result: 0.0661

query: Can you handle CAHSKRRVRDAGNASASA [FS-663] next?
result: 9.58

query: Can you handle CAMSKRDVLDAGNASASA [FS-2873] next?
result: -0.677
